- System: M14 melanoma
- Assay remarks: NCI-60 one-dose screen, 48 h (100 = growth as untreated, 0 = no growth, -100 = all killed)
- Condition details: 10 µM unless noted
About 83,000 compounds went through this panel and 20% of them were active in at least one assay; those are over-represented in the sample as a whole. Active and inactive are the calls of the source. Rule for the calls: active = growth percent below 10; inactive = the rest.
Measurement name: growth

Example entries begin here.
{"columns": ["Compound", "Measurement name", "Recorded value"],
 "data": [
  ["CN(C)CCCOc1c2ccccc2nc2c1oc1ccc(Cl)cc12", "growth", "-87.3% (active)"],
  ["N/C(=N\\c1nc2c(Cl)cc(Cl)cc2s1)C(Cl)(Cl)Cl", "growth", "93.3% (inactive)"],
  ["NC(=O)c1c(NC(=O)c2ccc(C3CCCCC3)cc2)sc2c1CCC(=O)C2", "growth", "18% (inactive)"]
]}

Below are 6 compounds. Give each one its growth.
1. COc1ccc(-c2cc(C(=O)N=Nc3c(O)[nH]c4ccccc34)c3ccccc3n2)cc1OC
2. Clc1ccc(-c2cn3cc(Cc4ccc(Cl)c(Cl)c4)sc3n2)cc1
3. CCCC(=O)NC(c1cccc(N(C)C)c1)c1cc(C)c2cccnc2c1O (stereo unspecified)
4. COc1ccc(/C=N/NC(=O)c2[nH]c3ccc(Br)cc3c2-c2ccccc2)s1
5. Cn1ccnc1C(=O)/C=C/c1ccc(NC(=O)Nc2ccc(Cl)cc2)cc1
6. COc1cc2nc(-c3ccc(Cl)cc3)cc(OCCCNCC3CCCO3)c2cc1OC (stereo unspecified)

["95.6% (inactive)", "20.2% (inactive)", "49.3% (inactive)", "6.17% (active)", "84.4% (inactive)", "-71.5% (active)"]

---

- System: OVCAR-3 ovarian
- Assay remarks: NCI-60 one-dose screen, 48 h (100 = growth as untreated, 0 = no growth, -100 = all killed)
- Condition details: 10 µM unless noted
About 83,000 compounds went through this panel and 20% of them were active in at least one assay; those are over-represented in the sample as a whole.
Response field label: string, one of 1 (yes) (growth strictly below 90%) or 0 (no).

Look over these answered cases.
{"columns": ["Molecule", "Group label"],
 "data": [
  ["CN(C)S(=O)(=O)c1oc(-c2ccccc2)nc1C#N", "1 (yes)"],
  ["CC1=C(C)C(=O)C(Nc2cccc(C(F)(F)F)c2)=C(Cl)C1=O", "1 (yes)"],
  ["CCN(CC)c1ccc(C=O)c(OCc2cn(CC(=O)Nc3ccc(Cl)cc3)nn2)c1", "1 (yes)"],
  ["COc1ccc(-c2nc3ccc(-c4nnc(SCC(=O)Nc5ccc(C(C)=O)cc5)o4)cc3[nH]2)cc1", "0 (no)"],
  ["O=C(Oc1ccc2ccc(=O)oc2c1)c1ccc(Cl)cc1", "0 (no)"]
]}

Please state whether growth is below 90% for `Clc1ccc2c(OCCCN3CCOCC3)c3oc4ccccc4c3nc2c1`
1 (yes)

Please state whether growth is below 90% for `C#C[C@]1(O)CC[C@H]2[C@@H]3CC=C4c5sc(Nc6ccc(Cl)cn6)nc5CC[C@]4(C)[C@H]3CC[C@@]21C`
1 (yes)

Please state whether growth is below 90% for `N#Cc1c(-c2ccc(Cl)cc2)nc(SCc2ccc([N+](=O)[O-])cc2)nc1N1CCNCC1`
1 (yes)

Please state whether growth is below 90% for COc1cc2nc(-c3ccc(C(F)(F)F)cc3)cc(OCCCNCC3CCCO3)c2cc1OC (stereo not given)
1 (yes)

Please state whether growth is below 90% for `N#Cc1c(-c2ccc(Cl)cc2)nc(SCc2ccccc2)nc1N1CCNCC1`
1 (yes)

Please state whether growth is below 90% for `Cn1c(SCC(=O)c2cccs2)nc2ccccc2c1=O`
0 (no)

Please state whether growth is below 90% for `Cc1c(NC(=O)CSc2nc3sc4c(c3c(=O)n2-c2ccc(Cl)cc2)CCCC4)c(=O)n(-c2ccccc2)n1C`
0 (no)

Please state whether growth is below 90% for `COc1cccc(COc2ccc(/C=C3/C(=O)Nc4cc(Cl)ccc43)cc2)c1`
0 (no)

Please state whether growth is below 90% for `Cc1c(Nc2nnc(SCC(=O)Nc3sc4c(c3C#N)CCCC4)s2)c(=O)n(-c2ccccc2)n1C`
0 (no)

Please state whether growth is below 90% for `O=C(CSc1nccc(=O)[nH]1)Nc1ccc(-c2nc3ccccc3[nH]2)cc1`
0 (no)

Please state whether growth is below 90% for `COc1cc(N=Cc2sc(Nc3nccs3)nc2O)cc(OC)c1OC`
1 (yes)

Please state whether growth is below 90% for `CCN1CCN(S(=O)(=O)c2oc(-c3ccc(Cl)cc3)nc2C#N)CC1`
1 (yes)

Please state whether growth is below 90% for `O=C(CSc1nc2sc3c(c2c(=O)n1-c1ccc(Cl)cc1)CCCC3)NNC(=O)Nc1ccc(Cl)c(C(F)(F)F)c1`
1 (yes)

Please state whether growth is below 90% for `COc1cc(OC)c(S(=O)(=O)NNC(=O)c2ccncc2)cc1C(=O)/C=C/c1ccc(C)cc1`
1 (yes)
